Some molecules, each annotated with its measured pIC50.
Tested on: HepG2
Experiment: Cytotoxicity against human HepG2 cells assessed as reduction in cell viability incubated for 24 hrs by MTT assay
Format: functional, cell-based
Settings: HepG2, 24 h
Scale explanation: pIC50 corresponds to minus log10 of a concentration expressed in moles per litre.

CC(=O)Nc1ccc(Oc2cccc3c(NC(=O)Nc4ccccc4)cccc23)cc1
6.59
CC(=O)Nc1ccc(Oc2cccc3c(NC(=O)Nc4cccc(C(F)(F)F)c4)cccc23)cc1
6.59
CC(=O)Nc1ccc(Oc2cccc3c(NC(=O)Nc4ccc(Cl)c(C(F)(F)F)c4)cccc23)cc1
6.59

Looking up CNC(=O)c1cc(Oc2ccc(NC(=O)Nc3ccc(Cl)c(C(F)(F)F)c3)cc2)ccn1.Cc1ccc(S(=O)(=O)O)cc1 [SORAFENIB TOSYLATE] , I found its pIC50 recorded as 6.67
